Give measured Max % Inhibition (333.3 nM), n = 1, IGF-II pTYR, BxPC3 cells for each item. Keep answers brief.
Target: human insulin-like growth factor-II (IGF-II) (human, UniProt P01344 25-91)
Assay: cell-based or functional assay
One number for each entry, in %.

Binder	Result Number
mAb 7.234.2 (antibody, V domains shown, Kappa light chain (L5/JK3); also called 7.234.1; 7_234_1) VH: QLQLQESGPGLVKPSETLSLTCTVSGGSINSSSNYWGWIRQPPGKGLAWIGGIYYSGSTYYNPSLRSRVTMSVDTSKNQFSLKLSSVTAADTAVYYCARQRGHSSGWWYFDLWGRGTLVTVSS VL: DIQMTQSPSSVSASVGDRVTITCRASRGISSWLAWYQQRPGKAPKLLIYTASSLQSGVPSRFSGSGSGTDFTLTISSLQPEDFATYYCQQANSFPFTFGPGTKVDIKR	98.5
mAb 7.158.2 (antibody, V domains shown, Kappa light chain (L5/JK3); also called 7.158.1; 7_158_1) VH: QLQLQESGPGLVKPSETLSLTCTVSGGSIRSSSYYWGWIRQPPGKGLEWIGGIYYSGSTYYNPSLKSRVTMSVDTSKNQFSLKLSSVTAADTAVYYCARQRGHSSGWWYFDLWGRGTLVTVSS VL: DIQMTQSPSSVSASVGDSVTITCRASQGISSYLAWYQQKPGKAPKLLIYAASSLQSGVPSRFSGNGSGTDFTLTISSLQPEDFATYYCQQANNFPFTFGPGTKVDIKR	92.4
mAb 7.34.1 (antibody, V domains shown, Fully human XenoMouse hybridoma mAb, lambda light chain (V1-13/JL2); also called ATCC PTA-7423) VH: QVQLQESGPGLVKPSETLSLTCTVSGGSISSYYWSWIRQPPGRGLEWIGYFFYSGYTNYNPSLKSRVTMSVDTSKNQFSLKLSSVTAADTAVYYCACITGTTKGGMDVWGQGATVTVSS VL: QSVLTQAPSVSGAPGQRVTISCTGRSSNIGAGYDVHWYQQFPGTAPKLLIYGNSNRPSGVPDRFSGSKSGTSASLAITGLQAEDEADYYCQSYDSSLSGSVFGGGTKLTVLG	100
mAb 7.251.3 (antibody, V domains shown, Fully human XenoMouse hybridoma mAb, lambda light chain (V1-13/JL2); also called ATCC PTA-7422) VH: QVQLQESGPGLVKPSETLSLTCTVSGGSISSYYWSWIRQPPGKGLEWIGYFFYSGYTNYNPSLKSRVTISVDTSKNQFSLKLSSVTAADTAVYYCACITGTTKGGMDVWGQGTTVTVSS VL: QSVLTQPPSVSGAPGQRVTISCTGSSSNIGAGYDVHWYQQLPGTAPKLLIYGNNNRPSGVPDRFSGSKSGTSASLAITGLQADDEADYYCQSFDSSLSGSVFGGGTKLTVLG	100

Alright, here's another binder for you.
Given the binder mAb 7.159.2 (antibody, V domains shown, Fully human XenoMouse hybridoma mAb, lambda light chain (V1-19/JL2); Sister clones 7.159.1 and 7.159.2 are said to be identical; also called 7.159.1; 7_159_1) VH: QVQLVQSGAEVKKPGASVKVSCKASGYTFTSYDINWVRQATGQGLEWMGWMNPNSGNTGYAQKFQGRVTMTRNTSISTAYMELSSLRSEDTAVYYCARDPYYYYYGMDVWGQGTTVTVSS VL: QSVLTQPPSVSAAPGQKVTISCSGSSSNIENNHVSWYQQLPGTAPKLLIYDNNKRPSGIPDRFSGSKSGTSATLGITGLQTGDEADYYCETWDTSLSAGRVFGGGTKLTVLG , what is its reported Max % Inhibition (333.3 nM), n = 1, IGF-II pTYR, BxPC3 cells?
100
